The measured values listed here are drawn from PubChem BioAssay (NCATS).

assay: A2780 Cisplatin Sensitive Ovarian Cancer Cell Toxicity qHTS against the NCATS CANVASS Library (AID 1347353); settings: A2780 ovarian cancer viability, ATPLite luminescence, 72 h; series mostly up to 46.1 µM; note: nearly all actives have a fitted effect of over 60% in size
Inconclusive results are not listed. Active and inactive are the calls of the source. Calls come from the whole dose curve; as a rule, active = well fitted cell-killing curve with a large enough effect; inconclusive = small, poorly fitted or top-dose-only effect; inactive = flat fitted curve, though single readings scatter. Peptide text beside a SMILES is read from it. * marks the point of attachment. Octanoyl = CCCCCCCC(=O)*
Form entry, call: pick from true (1) (active), false (0) (inactive)

Answered cases to consult:
>>> class_label("CN1CC[C@]2(c3cccc4c3N[C@@H]3N(C)CC[C@]43[C@@]34CCN(C)[C@@H]3Nc3c([C@]56CCN(C)[C@H]5Nc5ccccc56)cccc34)c3ccccc3N[C@H]12")
"true (1)"
>>> class_label("C[C@@]12C[C@@H](C[C@H]3C(=O)O[C@@H](c4ccoc4)[C@H](OC(=O)c4ccccc4)[C@@H]31)OC2=O")
"false (0)"
>>> class_label("CC(=O)O[C@H]1CC[C@@]2(C)C(CC[C@]3(C)C2CC=C2C4CC(C)(C)CC[C@]4(C)CC[C@]23C)C1(C)C (stereo partly specified)")
"false (0)"
>>> class_label("C=C[C@]1(C)CC[C@@H]([C@H](C)C(=O)/C=C/C(C)C)O1")
"false (0)"
>>> class_label("C=C1C(=O)O[C@H]2C[C@H](C)[C@@H]3CC(=O)C(C)=C3[C@H](O)[C@H]12")
"true (1)"
>>> class_label("C[C@@H]1O[C@@H](Oc2c(-c3ccc(O)cc3)oc3cc(O)cc(O)c3c2=O)[C@H](O)[C@H](O)[C@H]1O")
"false (0)"
>>> class_label("C=C1C[C@@]23C=CC(=O)[C@@](C)(CCC(=O)Nc4c(O)ccc(C(=O)O)c4O)C2C[C@@H]1C(O)C3 (stereo partly specified)")
"false (0)"
>>> class_label("CC1(C)[C@H](Br)CC[C@]23C[C@]4(C)C(=O)CC12C[C@H]34")
"false (0)"
>>> class_label("C=C1C[C@@]23C=CC(=O)[C@@](C)(CCC(=O)Nc4c(OC5O[C@H](CO)[C@@H](O)[C@H](O)[C@H]5O)ccc(C(=O)O)c4O)C2C[C@@H]1CC3 (stereo partly specified)")
"false (0)"
>>> class_label("C[C@@H]1C[C@H]2C[C@]3(CCCCN3C)[C@@H]3C[C@H]2[C@H](C1)N(C)C3")
"false (0)"

Task item: Please state the recorded outcome for this compound: CCCCCCCC(=O)N[C@@H](CC(C)C)C(=O)N[C@H](C=O)CCC(=O)O (Octanoyl-Leu-Glu-aldehyde)
Reply: false (0)

Task item: Check the results log: what was the call for CCCCCCCCCCCCCCCC(=O)OC/C=C(\C)CCCC(C)CC(C)C(C)C (stereo unspecified) ?
Reply: false (0)

Task item: Could you kindly confirm the outcome this assay logged for O=C(O)Cc1c[nH]c2ccccc12 ?
Reply: false (0)

Task item: What outcome does the record of this test show for COc1cc(/C=C2/C(=O)N(c3ccc(O)cc3C(=O)O)[C@H](c3ccc(O)c(OC)c3)C2C(=O)Nc2ccc(O)cc2C(=O)O)ccc1O (stereo partly specified) ?
Reply: false (0)

Task item: Hey, what did the test say about CC[C@@H]1C[C@@]2(CC)OC(=O)[C@@]3(CC)OC(=O)[C@@H]1[C@@H]23 ?
Reply: false (0)

Task item: Recorded call for COc1ccc2cc(NC(=O)C3=NO[C@H]4[C@H](O)C=C[C@@H](Cl)[C@@]4(O)C3)c(=O)oc2c1OC ?
Reply: true (1)

Task item: Please indicate how the test categorized CO[C@H]1/C=C/CC[C@@H](S[C@@H]2O[C@H](CO)[C@@H](O)[C@H](O)[C@H]2O)CC(=O)O[C@@H](/C(C)=C/[C@H](C)C(=O)CCCC2CC(=O)NC(=O)C2)[C@@H](C)[C@@H]1O .
Reply: true (1)

Task item: Outcome? CC12C[C@]3(O)O[C@@H](O1)[C@]1(COC(=O)c4ccccc4)[C@@H]3CC21OC1OC(CO)C(O)C(O)C1O (stereo partly specified)
Reply: false (0)

Task item: What call does the record list for CNc1ccc(Cl)cc1C(=O)OC[C@]1(C)[C@H]2CC[C@]3(C)[C@@H](C[C@@H](OC)[C@H](C)[C@H]3C3=C(O)C(=O)OC3O)[C@]2(C)CC[C@H]1O (stereo partly specified) ?
Reply: false (0)

Task item: What classification did C=C(NC(=O)c1csc(-c2nc3c(cc2O)-c2nc(cs2)C(=O)NC(C(C)O)C(=O)N/C(=C(\C)O)c2nc(cs2)C(=O)NC2c4nc(cs4)C(=O)NC(COC(=O)c4c5c6c(cccc6n4O)COC(=O)[C@@H](OC4C[C@](C)(O)[C@H](N(C)C)[C@H](C)O4)C2OC5)c2nc-3cs2)n1)C(N)=O (stereo partly specified) end up with in this test?
Reply: false (0)

Task item: What classification did COc1ccc(/C=C2\COc3cc(O)ccc3C2=O)cc1 end up with in this test?
Reply: true (1)

Task item: Field: outcome | Entry: C/C(=C\[C@H](C)C(=O)CCCC1CC(=O)NC(=O)C1)C(O)[C@@H](C)[C@H](O)C/C=C/CC/C=C/C(=O)O (stereo partly specified)
Reply: false (0)

Task item: Recorded call for O=C1C[C@@H](c2ccc(O)c(-c3c(O)cc(O)c4c3O[C@H](c3ccc(O)cc3)CC4=O)c2)Oc2cc(O)cc(O)c21 ?
Reply: false (0)

Task item: Lab log entry: C/C=C/C(=O)[C@@H](C)C1=CC(=O)C2=C(O[C@@]34CC[C@H](O)C(C)(C)[C@@H]3CC[C@H](C)[C@@]4(C)C2)C1=O — outcome as called in the assay?
Reply: true (1)

Task item: Check the results log: what was the call for C[C@@]12CCC[C@@](C)(C(=O)O)[C@H]1CC[C@]13C[C@H]4C[C@H](O[C@@]4(C)C1)[C@H]32 ?
Reply: false (0)

Task item: Short answer needed: outcome of this test for Oc1ccc(/C=C2/c3cc(O)cc(O)c3C(c3ccc(O)cc3)[C@H]2c2cc(O)cc(O)c2)cc1 (stereo partly specified) ?
Reply: false (0)

Task item: So what was the verdict on C[C@@]12CCC[C@@](C)(C(=O)O)[C@H]1C[C@@H](O)[C@]13C[C@H]4C[C@H](O[C@@]4(C)C1)[C@@H]23 in this test?
Reply: false (0)

Task item: Entry COc1cc(/C=C/C(=O)O)ccc1O : call = ?
Reply: false (0)

Task item: What call does the record list for CN1C(=O)[C@]23SS[C@@]1(C)C(=O)N2[C@H]1Nc2ccccc2[C@]1(c1c[nH]c2ccccc12)[C@@H]3O ?
Reply: true (1)

Task item: Record lookup: outcome of this test for C[C@@H]1C(=O)[C@]23CC[C@H]1C[C@]21O[C@H]2C(C)(C)C=CC(=O)[C@]23COC1=O ?
Reply: false (0)

Task item: Test call, this compound: O=C(O)[C@@]12COC3(O)C1CCN1CC[C@H]3[C@@H]1c1c2[nH]c2ccccc12
Reply: false (0)
